What maximal growth inhibition was measured for each of the following?
Tested on: SUDIPGXXI (diffuse intrinsic pontine glioma line)
Assay: maximal growth inhibition (yFin) relative to DMSO / staurosporine; higher = more efficacious
One number for each entry, in %.

Fill in maximal growth inhibition for each of the 8 molecules listed.
1. C[C@@H](Oc1cc(-c2cnn(C3CCNCC3)c2)cnc1N)c1c(Cl)ccc(F)c1Cl
2. CN1CCCN(C(=O)c2cccc(-c3ccc(/C=C4/C(=O)Nc5ccc(Cl)cc54)o3)c2)CC1
3. O=C(c1ccccc1)c1ccc2nc(NC(=O)c3csc(C4CCN(c5ncnc6ccsc56)CC4)n3)[nH]c2c1
4. COCC1(CO)C(=O)C2CCN1CC2 (configuration not stated)
5. O=C(c1ccc(Nc2nccc(-c3cc4ccccc4s3)n2)cc1)N1CCC(N2CCCC2)CC1
6. Fc1ccc(N2CCN(CCC3OCCc4ccccc43)CC2)cc1 (configuration not stated)
7. Cc1[nH]c2ccccc2c1CCNCc1ccc(/C=C/C(=O)NO)cc1
8. Fc1ccc(-c2c3cccc(C(F)(F)F)c3nn2Cc2ccc(F)cc2Cl)cc1

Reply |
119
106
111
112
120
57.5
110
112

Below are 6 molecules. Give each one its maximal growth inhibition.
1. Cc1ccc2nc(NCCN)c3ncc(C)n3c2c1
2. CN(C)C/C=C/C(=O)Nc1ccc(C(=O)Nc2cccc(Nc3ncc(Cl)c(-c4c[nH]c5ccccc45)n3)c2)cc1
3. OC1(c2ccc(Cl)c(C(F)(F)F)c2)CCN(CCCC(c2ccc(F)cc2)c2ccc(F)cc2)CC1
4. Cc1c(C2CCN(CCc3ccccc3)CC2)noc1-c1ccc(Cl)cc1
5. CCNC(=O)c1noc(-c2cc(C(C)C)c(O)cc2O)c1-c1ccc(CN2CCOCC2)cc1
6. C[C@@H]1O[C@@H](O[C@H]2C[C@@H](O)[C@]3(CO)[C@H]4[C@H](O)C[C@]5(C)[C@@H](C6=CC(=O)OC6)CC[C@]5(O)[C@@H]4CC[C@]3(O)C2)[C@H](O)[C@H](O)[C@H]1O

Reply |
[117, 107, 106, 106, 115, 90.6]

* * *

Test system: HGGX6 (H3.3 G34R paediatric high-grade glioma line)
Test: area under dose-response curve of % growth inhibition (log2 RLU vs DMSO / staurosporine), 1e-11 to 1e-4 M (% x log10 M); higher = more growth inhibition
# label = bin(measured area under dose-response curve), where bins are bin A: < 40; bin B: ≥ 40 and < 70; bin C: ≥ 70

Some entries whose results are on file:
Ask | Category of Clc1ccc(CSC(Cn2ccnc2)c2ccc(Cl)cc2Cl)cc1 (stereo unspecified) :
Reply | bin B

Ask | Class (by measured area under dose-response curve) for "CC[C@H](C)C(=O)O[C@H]1C[C@@H](C)C=C2C=C[C@H](C)[C@H](CC[C@@H]3C[C@@H](O)CC(=O)O3)[C@H]21"
Reply | bin A

Ask | Lab note: sort "CN(C(=O)CN(CCO)CC(=O)N(C)C(C)(C)Cc1ccccc1)C(C)(C)Cc1ccccc1" into the matching area under dose-response curve band.
Reply | bin A

Ask | Band for the recorded area under dose-response curve of "CS(=O)(=O)c1ccc(C(=O)Nc2ccc(Cl)c(-c3ccccn3)c2)c(Cl)c1" ?
Reply | bin A

Ask | Which class is correct for the following compound? "CCCc1cc(C)[nH]c(=O)c1CNC(=O)c1cc(-c2ccnc(N3CCN(C)CC3)c2)cc2c1cnn2C(C)C"
Reply | bin B

Now, please, on to the next compound.
Ask | Kindly identify the class of "CCCS(=O)(=O)c1nc(NC2CC2)cc(-c2ccc3c(ccn3C3CC(C)(C)NC(C)(C)C3)c2)n1" .
Reply | bin C
